Below, each entry is listed with its recorded GOT Level.
Tested on: Rattus norvegicus
RUN DESCRIPTION: Hepatoprotective activity against thioacetamide(200 mg/kg, sc) induced toxicity in rat at 6 mg/kg dose(po x 7 days), expressed as %protection afforded in various levels of glutamate oxaloacetate transaminase (GOT)
Assay type: functional

COMPOUND	TARGET SYSTEM	GOT Level / U l-1
COc1ccc(Cc2c(N)n[nH]c2N)cc1	Rattus norvegicus	70.4
CC(=N)S [THIOACETAMIDE]	Rattus norvegicus	128
CN(C)c1ccc(Cc2c(N)n[nH]c2N)cc1	Rattus norvegicus	67.1
Nc1nc(N)nc(Cc2cc(-c3ccc(Cl)cc3)[nH]n2)n1	Rattus norvegicus	119
Nc1nc(N)nc(Cc2cc(-c3ccc(F)cc3)[nH]n2)n1	Rattus norvegicus	121.6
Nc1noc(N)c1Cc1ccc2c(c1)OCO2	Rattus norvegicus	101.5
Nc1n[nH]c(N)c1Cc1ccc(Cl)cc1	Rattus norvegicus	97.5
